experiment: qHTS assay for cell viability of HEK293 cells (AID 743288); conditions: ATP luminescence (CellTiter-Glo), 18 h; hits give low values; also: % is scaled to controls: 0 for no effect and ±100 for the full control effect; nearly all actives have a fitted effect of over 50% in size
Inconclusive results are not listed.
In this section we review reported max response values for a set of compounds.
READOUT_NAME: max response (%)

{"columns": ["COMPOUND", "REPORTED_MEASUREMENT"],
 "data": [
  ["CC(=O)[C@@]1(O)CC[C@H]2[C@@H]3CCC4=CC(=O)CC[C@]4(C)[C@H]3CC[C@@]21C", -17.3],
  ["O=c1[nH]c(=O)n([C@H]2C[C@H](O)[C@@H](CO)O2)cc1Br", -7.4],
  ["COc1ccc(CN(CCN(C)C)c2ccccn2)cc1", -9.66],
  ["CC(C)(Oc1ccc(CCNC(=O)c2ccc(Cl)cc2)cc1)C(=O)O", -0.154],
  ["Cc1ccc(S(=O)(=O)NC(=O)NN2CCCCCC2)cc1", -0.908],
  ["C[C@]12CCC(=O)C=C1CC[C@@H]1[C@@H]2C(=O)C[C@@]2(C)[C@H]1CC[C@]2(O)C(=O)CO", -1.33]
]}
